molecular target: T1, recombinant human ErbB3 protein (R&D systems) (human, UniProt P21860 20-643); experiment: BLI (Octet QK384), human ErbB3 immobilized on AR2G sensor, IgG at 12.5-50 nM
T1 construct: Bought recombinant protein; also called HER3
MEASUREMENT_KIND: Kd (pM)
Give just the number in pM; leave the unit off.

BINDER	QUANTITY_UNIT	Kd
451M7 (antibody, V domains shown, IgG1 (Selexis 085 vector, CHO)) VH: EVQLLESGGGLVQPGGSLRLSCAASGFTFSYYDMSWVRQAPGKGLEWVSAIYYDSGSIYYADSAKGRFTISRDNSKNTLYLQMNSLRAEDTAVYYCAKDRLFESDSTFDYWGQGTLVTVSS VL: QSVLTQPPSASGTPGQRVTISCSGSPSNIGNNSVTWYQQLPGTAPKLLIYYDSHRPSGVPDRFSGSKSGTSASLAISGLRSEDEADYYCGSWDASLNGYVFGGGTKLTVLG	pM	4.92

Proceed to the following item.
What measured Kd goes with 451M5 (antibody, V domains shown, IgG1 (Selexis 085 vector, CHO)) VH: EVQLLESGGGLVQPGGSLRLSCAASGFTFSDYDMSWVRQAPGKGLEWVSAIYYDSGSIYYADSAKGRFTISRDNSKNTLYLQMNSLRAEDTAVYYCAKDRLFESDSTFDYWGQGTLVTVSS VL: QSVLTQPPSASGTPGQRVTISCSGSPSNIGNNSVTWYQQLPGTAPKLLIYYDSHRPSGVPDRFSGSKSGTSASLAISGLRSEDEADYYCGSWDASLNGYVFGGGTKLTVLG ?
21.7

Value source: patent US20180085455A1
